# Tested on: recombinant human Meningioma Expressed Antigen 5 (MGEA5), also referred to as O-GlcNAcase (OGA) (Homo sapiens, UniProt O60502)
# Construct: Full length OGA enzyme was purchased at OnGene (cat #TP322411); purchased OnGene (so in the source)
# Sequence (O60502 whole entry): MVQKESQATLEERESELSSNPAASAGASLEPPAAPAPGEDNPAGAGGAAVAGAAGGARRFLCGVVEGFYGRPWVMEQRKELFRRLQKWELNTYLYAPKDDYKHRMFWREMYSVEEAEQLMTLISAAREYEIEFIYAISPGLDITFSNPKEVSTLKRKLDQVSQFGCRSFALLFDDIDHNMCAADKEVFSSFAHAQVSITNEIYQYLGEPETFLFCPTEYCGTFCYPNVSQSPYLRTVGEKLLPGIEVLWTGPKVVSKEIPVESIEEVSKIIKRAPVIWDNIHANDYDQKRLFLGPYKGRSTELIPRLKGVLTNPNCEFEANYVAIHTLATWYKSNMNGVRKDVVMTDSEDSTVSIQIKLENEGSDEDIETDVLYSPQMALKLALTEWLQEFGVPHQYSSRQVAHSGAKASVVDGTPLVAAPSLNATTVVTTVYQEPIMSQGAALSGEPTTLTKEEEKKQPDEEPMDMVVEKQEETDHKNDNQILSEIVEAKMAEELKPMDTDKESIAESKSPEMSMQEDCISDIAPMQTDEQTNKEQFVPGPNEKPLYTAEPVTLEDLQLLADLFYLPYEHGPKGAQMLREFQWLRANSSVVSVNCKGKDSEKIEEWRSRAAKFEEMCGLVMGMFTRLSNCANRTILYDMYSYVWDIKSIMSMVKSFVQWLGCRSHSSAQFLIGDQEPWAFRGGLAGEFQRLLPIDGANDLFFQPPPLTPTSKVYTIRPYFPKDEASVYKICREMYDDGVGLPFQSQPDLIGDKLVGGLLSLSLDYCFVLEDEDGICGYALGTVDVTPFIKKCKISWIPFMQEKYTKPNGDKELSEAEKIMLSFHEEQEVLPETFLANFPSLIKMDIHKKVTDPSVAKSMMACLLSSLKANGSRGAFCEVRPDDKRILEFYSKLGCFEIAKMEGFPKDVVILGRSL
# Assay protocol: OGA biochemical assay (inhibition of FM-GlcNAc hydrolysis, fluorescence)
# Reported conditions: read-out: Enzymatic hOGA, pIC50 (converted)
Value type: IC50 (nM)

molecule="Cc1cc(OC[C@@H]2CCCN([C@@H](C)c3ccc4c(n3)OCCO4)C2)cc(C)n1 (relative stereo)" unit_annotation=nM censoring_qualifier=> assay_value=10000
molecule="Cc1cc(OC[C@H]2CCCN(C(C)c3nc4c(cc3F)OCCO4)C2)cc(C)n1 (single isomer, unassigned) [Product 156]" unit_annotation=nM censoring_qualifier== assay_value=251
molecule="COc1cc(C[C@H]2CCCN(C(C)c3ccc4c(n3)OCCO4)C2)cc(C)n1 (mixture of isomers)" unit_annotation=nM censoring_qualifier== assay_value=7.94
molecule="COc1cc(NCC2CCCN(C(C)c3ccc4c(c3)OCC4)C2)cc(C)n1 (stereo not shown)" unit_annotation=nM censoring_qualifier== assay_value=7.94
